Source: patent EP2025678A1

Below is a list of entries, each paired with its recorded IC50 value.
- TARGET ENTITY: human EphB4 (Homo sapiens)
- Sequence (P54760 16-987): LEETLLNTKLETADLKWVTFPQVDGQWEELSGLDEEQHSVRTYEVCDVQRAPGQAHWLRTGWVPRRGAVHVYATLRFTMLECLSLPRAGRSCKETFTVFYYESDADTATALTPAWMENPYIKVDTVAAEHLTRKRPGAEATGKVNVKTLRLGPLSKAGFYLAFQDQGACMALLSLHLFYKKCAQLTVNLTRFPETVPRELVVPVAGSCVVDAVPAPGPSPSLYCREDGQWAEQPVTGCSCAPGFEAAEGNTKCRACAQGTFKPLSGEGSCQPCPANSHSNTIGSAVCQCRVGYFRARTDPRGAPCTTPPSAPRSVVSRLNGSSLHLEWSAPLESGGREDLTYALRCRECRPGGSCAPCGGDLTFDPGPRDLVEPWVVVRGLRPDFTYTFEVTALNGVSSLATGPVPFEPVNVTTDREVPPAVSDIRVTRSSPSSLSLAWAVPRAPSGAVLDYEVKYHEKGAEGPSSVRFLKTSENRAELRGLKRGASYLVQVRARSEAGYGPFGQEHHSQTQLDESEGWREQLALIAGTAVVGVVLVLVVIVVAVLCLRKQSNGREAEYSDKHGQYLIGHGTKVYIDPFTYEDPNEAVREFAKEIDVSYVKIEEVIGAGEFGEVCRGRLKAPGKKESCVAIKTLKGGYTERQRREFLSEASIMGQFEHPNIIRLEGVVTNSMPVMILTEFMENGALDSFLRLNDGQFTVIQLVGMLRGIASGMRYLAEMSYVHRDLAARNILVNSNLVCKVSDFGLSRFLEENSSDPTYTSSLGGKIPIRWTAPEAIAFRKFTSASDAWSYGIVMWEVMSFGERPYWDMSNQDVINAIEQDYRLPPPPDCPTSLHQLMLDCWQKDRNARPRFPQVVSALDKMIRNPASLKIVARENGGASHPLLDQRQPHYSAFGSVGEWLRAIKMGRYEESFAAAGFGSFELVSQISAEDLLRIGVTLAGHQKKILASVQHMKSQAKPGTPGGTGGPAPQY
- METHOD DESCRIPTION: Cellular autophosphorylation assay EphB4 (ELISA) in CHO-EphB4 cells
- Type: cell-based
- Set-up: stably transfected with myc-tagged full length human EphB4; expressed in transfected cells; host or cells: CHO (chinese hamster ovary)
- MEASUREMENT CONTEXT: ephrinB2/Fc induced autophosphorylation

- COMPOUND: "Cc1ccccc1Nc1nc(NCc2ccco2)nc2c1cnn2C"
  IC50: "1000 to 10000 nM"
- COMPOUND: "CCCCNc1nc(Nc2ccccc2C)c2cnn(C)c2n1"
  IC50: "< 1000 nM"
- COMPOUND: "CCNc1nc(Nc2ccccc2C)c2cnn(C)c2n1"
  IC50: "< 1000 nM"
- COMPOUND: "Cc1cc(Cl)ccc1Nc1nc(NC2CCCC2)nc2c1cnn2C"
  IC50: "1000 to 10000 nM"
- COMPOUND: "Cc1ccccc1Nc1nc(NCc2ccccc2Cl)nc2c1cnn2C"
  IC50: "< 1000 nM"
- COMPOUND: "CNc1nc(Nc2ccc(Cl)cc2C)c2cnn(C)c2n1 [drawing 56]"
  IC50: "> 10000 nM"
